# target.system: Peroxisome proliferator-activated receptor gamma (Homo sapiens) (UniProt P37231)
# Sequence (P37231 whole entry, looked up): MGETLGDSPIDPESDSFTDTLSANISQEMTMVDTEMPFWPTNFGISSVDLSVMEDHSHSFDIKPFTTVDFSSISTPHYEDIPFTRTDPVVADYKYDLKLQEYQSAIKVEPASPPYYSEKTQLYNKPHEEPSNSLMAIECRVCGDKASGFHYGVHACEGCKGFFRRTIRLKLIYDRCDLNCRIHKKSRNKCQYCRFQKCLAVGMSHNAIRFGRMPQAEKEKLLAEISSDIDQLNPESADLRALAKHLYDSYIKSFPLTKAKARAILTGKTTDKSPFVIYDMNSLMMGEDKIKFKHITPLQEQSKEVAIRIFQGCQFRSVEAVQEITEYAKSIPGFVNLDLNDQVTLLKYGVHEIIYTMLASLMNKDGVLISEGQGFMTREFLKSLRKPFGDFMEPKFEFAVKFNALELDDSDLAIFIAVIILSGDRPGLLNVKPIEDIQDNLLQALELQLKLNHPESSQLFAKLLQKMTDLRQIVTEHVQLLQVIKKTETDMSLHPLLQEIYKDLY
# protocol.text: qHTS assay to identify small molecule antagonists of the peroxisome proliferator-activated receptor gamma (PPARg) signaling pathway (AID 743191); further: nearly all actives have a fitted effect of over 30% in size
# conditions: HEK293H PPARg-UAS-bla, beta-lactamase ratio, antagonist, 17 h; series mostly up to 62.6 µM
Records with an inconclusive call do not appear. Activity calls are given as the source filed them. The call rests on the fitted dose curve.
Outcome field: choose from Y for active, N for inactive

Incoming: Recorded test outcome, item CCC1(CC)C(=O)N=C(O)NC1=O
Outgoing: N

Incoming: Recorded test outcome, item NC(=O)C(Cl)Cl
Outgoing: N

Incoming: Recorded test outcome, item Cc1ccccc1OP(=O)(Oc1ccccc1C)Oc1ccccc1C
Outgoing: N

Incoming: Recorded test outcome, item CNN
Outgoing: N

Incoming: Recorded test outcome, item CCN(CC)C(=S)S
Outgoing: N

Incoming: Recorded test outcome, item Cc1c([N+](=O)[O-])c(C)c([N+](=O)[O-])c(C(C)(C)C)c1[N+](=O)[O-]
Outgoing: N

Incoming: Recorded test outcome, item CC(C)NCC(O)c1ccccc1Cl (stereo not drawn)
Outgoing: N

Incoming: Recorded test outcome, item CC(Cl)CCl (stereo not drawn)
Outgoing: N

Incoming: Recorded test outcome, item O=C(Cl)c1ccccc1F
Outgoing: N

Incoming: Recorded test outcome, item CCN(CC)CCN1C(=O)CN=C(c2ccccc2F)c2cc(Cl)ccc21
Outgoing: N

Incoming: Recorded test outcome, item CC(Cc1ccc2c(c1)OCO2)NO (stereo not drawn)
Outgoing: N

Incoming: Recorded test outcome, item COP(=O)(OC)Oc1ccc([N+](=O)[O-])cc1
Outgoing: Y

Incoming: Recorded test outcome, item O=[N+]([O-])c1ccc(Cl)c(Cl)c1Cl
Outgoing: N

Incoming: Recorded test outcome, item N#Cc1sc2c(=O)c3ccccc3c(=O)c=2sc1C#N
Outgoing: Y

Incoming: Recorded test outcome, item O=S1(=O)OCC2C(CO1)C1(Cl)C(Cl)=C(Cl)C2(Cl)C1(Cl)Cl (stereo not drawn)
Outgoing: N

Incoming: Recorded test outcome, item BrCC(Br)(Br)Br
Outgoing: N

Incoming: Recorded test outcome, item COC(=O)c1cc(Oc2ccc(Cl)cc2Cl)ccc1[N+](=O)[O-]
Outgoing: Y

Incoming: Recorded test outcome, item CCCCCON=O
Outgoing: N

Incoming: Recorded test outcome, item N#CCCl
Outgoing: N

Incoming: Recorded test outcome, item CCOP(=O)(Sc1ccccc1)Sc1ccccc1
Outgoing: Y

Incoming: Recorded test outcome, item C[C@@H]1CC2=CC(=O)CC[C@@H]2[C@H]2CC[C@@]3(C)[C@@H](CC[C@]3(C)O)[C@@H]21
Outgoing: N

Incoming: Recorded test outcome, item C#CC1(O)CCCCC1
Outgoing: N

Incoming: Recorded test outcome, item O=c1c2ccccc2c(=O)c2c1cc(Cl)c1[nH]c3c([nH]c12)c(Cl)cc1c(=O)c2ccccc2c(=O)c13
Outgoing: N

Incoming: Recorded test outcome, item CNC(=O)/C=C(\C)OP(=O)(OC)OC
Outgoing: N

Incoming: Recorded test outcome, item S=C=Nc1ccccc1
Outgoing: N

Incoming: Recorded test outcome, item CC(Cc1ccc(OCC(=O)O)cc1)NCC(O)c1csc(C(F)(F)F)n1 (stereo not drawn)
Outgoing: N

Incoming: Recorded test outcome, item O=NN(CCO)CCO
Outgoing: N

Incoming: Recorded test outcome, item Cc1cccc(Cc2cnc[nH]2)c1C
Outgoing: N

Incoming: Recorded test outcome, item COc1ccc2c(c1OC)C(=O)O[C@@H]2[C@H]1c2cc3c(cc2CCN1C)OCO3
Outgoing: N

Incoming: Recorded test outcome, item Nc1nc(N)nc(Cl)n1
Outgoing: N

Incoming: Recorded test outcome, item CNC(C)(C)Cc1ccccc1
Outgoing: N

Incoming: Recorded test outcome, item S=C=NCCc1ccccc1
Outgoing: N

Incoming: Recorded test outcome, item CCCCN(CCCC)C(=S)[S-].CCCCN(CCCC)C(=S)[S-].[Ni+2]
Outgoing: N

Incoming: Recorded test outcome, item ClC(Cl)C(Cl)(Cl)Cl
Outgoing: N

Incoming: Recorded test outcome, item COP(=S)(OC)Oc1ccc([N+](=O)[O-])c(C)c1
Outgoing: N

Incoming: Recorded test outcome, item CCC(C)Br (stereo not drawn)
Outgoing: N

Incoming: Recorded test outcome, item CN/C(=N\[N+](=O)[O-])NCc1cnc(Cl)s1
Outgoing: N

Incoming: Recorded test outcome, item O=S(=O)(O)F
Outgoing: N

Incoming: Recorded test outcome, item ClSC(Cl)(Cl)Cl
Outgoing: N

Incoming: Recorded test outcome, item COC(=O)C(C)N(C(=O)c1ccco1)c1c(C)cccc1C (stereo not drawn)
Outgoing: N

Incoming: Recorded test outcome, item CC(Cc1ccc(O)cc1)NCC(O)c1cc(O)cc(O)c1 (stereo not drawn)
Outgoing: N

Incoming: Recorded test outcome, item Nc1nc(N)c(N)c(N)n1
Outgoing: N

Incoming: Recorded test outcome, item CCOP(=S)(NC(C)C)Oc1ccccc1C(=O)OC(C)C (stereo not drawn)
Outgoing: N

Incoming: Recorded test outcome, item CCCN
Outgoing: N

Incoming: Recorded test outcome, item CCN(CC)C(=O)N[C@@H]1C=C2c3cccc4[nH]cc(c34)C[C@@H]2N(C)C1
Outgoing: N

Incoming: Recorded test outcome, item Clc1ccc(C(Cl)(Cl)Cl)cc1Cl
Outgoing: N

Incoming: Recorded test outcome, item COc1cnc(OC)n2nc(NS(=O)(=O)c3c(OCC(F)F)cccc3C(F)(F)F)nc12
Outgoing: N

Incoming: Recorded test outcome, item C=CCBr
Outgoing: N
